Test system: NDM-1 E. coli XJ141015
assayNotes: Antibiotic susceptibility (MIC), automated identification system
Type: cell-based
statedConditions: Supplementary Table 1
Description: Clinical isolate strains were identified and screened by the Phoenix 100 automated bacterial identification system to rapidly detect antimicrobial resistance. Total DNA was extracted by the TIANamp Bacteria DNA Kit according to the manufacturer’s protocol. The presence of blaNDM-1 was confirmed using a diagnostic kit for NDM-1 (Puruikang Bio Inc., Shenzhen, China) based on fluorescent quantitative polymerase chain reaction assay. […]
propertyLabel: susceptibility class (MIC)

Here is how some molecules turned out for susceptibility class (MIC).
molecule="CC(C)(O/N=C(\\C(=O)N[C@@H]1C(=O)N2C(C(=O)[O-])=C(C[n+]3ccccc3)CS[C@H]12)c1csc(N)n1)C(=O)O [Ceftazidime]" targetentity="NDM-1 E. coli XJ141015" result=R
molecule="CCN1CCN(C(=O)N[C@@H](C(=O)N[C@@H]2C(=O)N3[C@@H]2SC(C)(C)[C@@H]3C(=O)O)c2ccccc2)C(=O)C1=O [Piperacillin]" targetentity="NDM-1 E. coli XJ141015" result=R
molecule="CN(C)[C@@H]1C(O)=C(C(N)=O)C(=O)[C@@]2(O)C(O)=C3C(=O)c4c(O)cccc4[C@@](C)(O)[C@H]3C[C@@H]12 [Tetracycline]" targetentity="NDM-1 E. coli XJ141015" result=S
molecule="NCC[C@H](O)C(=O)N[C@@H]1C[C@H](N)[C@@H](O[C@H]2O[C@H](CN)[C@@H](O)[C@H](O)[C@H]2O)[C@H](O)[C@H]1O[C@H]1O[C@H](CO)[C@@H](O)[C@H](N)[C@H]1O [Amikacin]" targetentity="NDM-1 E. coli XJ141015" result=S
molecule="Cc1nnc(SCC2=C(C(=O)O)N3C(=O)[C@@H](NC(=O)Cn4cnnn4)[C@H]3SC2)s1 [Cefazolin]" targetentity="NDM-1 E. coli XJ141015" result=R
molecule="C[C@@H](O)[C@H]1C(=O)N2C(C(=O)O)=C(SCCN=CN)C[C@H]12 [Imipenem]" targetentity="NDM-1 E. coli XJ141015" result=R
molecule="CO/N=C(\\C(=O)N[C@@H]1C(=O)N2C(C(=O)O)=C(COC(C)=O)CS[C@H]12)c1csc(N)n1 [Cefotaxime]" targetentity="NDM-1 E. coli XJ141015" result=R
molecule="C[C@H]1COc2c(N3CCN(C)CC3)c(F)cc3c(=O)c(C(=O)O)cn1c23 [Levofloxacin]" targetentity="NDM-1 E. coli XJ141015" result=R
molecule="C[C@H]1[C@H](NC(=O)/C(=N\\OC(C)(C)C(=O)O)c2csc(N)n2)C(=O)N1S(=O)(=O)O [Aztreonam]" targetentity="NDM-1 E. coli XJ141015" result=R
molecule="CO/N=C(\\C(=O)N[C@@H]1C(=O)N2C(C(=O)[O-])=C(C[N+]3(C)CCCC3)CS[C@H]12)c1csc(N)n1 [Cefepime]" targetentity="NDM-1 E. coli XJ141015" result=R

List susceptibility class (MIC) for every entry below, keeping the order given.
1. CC1(C)S[C@@H]2[C@H](NC(=O)[C@H](N)c3ccccc3)C(=O)N2[C@H]1C(=O)O [Ampicillin]
2. CNC(C)C1CCC(N)C(OC2C(N)CC(N)C(OC3OCC(C)(O)C(NC)C3O)C2O)O1 (stereo not drawn) [Gentamicin]
3. O=C(N[C@H](CO)[C@H](O)c1ccc([N+](=O)[O-])cc1)C(Cl)Cl [Chloramphenicol]
4. COc1c(N2C[C@@H]3CCCN[C@@H]3C2)c(F)cc2c(=O)c(C(=O)O)cn(C3CC3)c12 [Moxifloxacin]
5. C[C@@H](O)[C@H]1C(=O)N2C(C(=O)O)=C(S[C@@H]3CN[C@H](C(=O)N(C)C)C3)[C@H](C)[C@H]12 [Meropenem]

**Result**
1: R; 2: S; 3: R; 4: R; 5: R
